Test system: PfAP2-HC AP2 domain (GST-tagged)
protocolText: gcPBM binding intensity (ln(normalized median fluorescence intensity)); higher = stronger DNA binding
In all, about 25,000 sequences were measured (“ln(normalized median fluorescence intensity)”: median about 9.7, highest 2% from about 11 on). Many of the other results were omitted from the sample, so the highest values are more common in it than they were.
assayMetric: gcPBM binding intensity (ln)
Give bare numbers.

# annotated cases, reported gcPBM binding intensity (ln) shown
sequence | testSystem | measured
CATATATTTTGAAACACACACATATATAATATACAT [CACACA_site1158] | PfAP2-HC AP2 domain (GST-tagged) | 10.4
TAATTTTTGAAACACACACACATATATATATATATA [CACACA_site94] | PfAP2-HC AP2 domain (GST-tagged) | 10.5

Lab note: each sequence below needs its gcPBM binding intensity (ln) filled in.
1. AAAAAAAATATATATGCACACACAAAAAAACAAATT [CACACA_site8349]
2. TATCCATATTTGTTCACACACACACCGATTTATATA [CACACA_site5888]

Response:
1. 10.2
2. 10.2

Measured gcPBM binding intensity (ln) of ATCACATAAAATATGAATATATATTTTATATATATA [CACACA_negctrl_site340] : 9.53

###

System: PfAP2-HC AP2 domain (GST-tagged)
protocolText: gcPBM binding intensity (ln(normalized median fluorescence intensity)); higher = stronger DNA binding
Over roughly 25,000 sequences, “ln(normalized median fluorescence intensity)” has its median near 9.7; the highest 2% begin near 11. The sample holds the highest values, similar sequences and a random draw of the others, so the mix is not that of the screen.
# binarize gcPBM binding intensity (ln): threshold 10 inclusive, high side Satisfied, low side Not satisfied

Please review the following examples before continuing.
sequence | classLabel
CTTTGTGTTAAAAGTAGTACACCAAAAATATGACTT [XGTACX_site622] | Not satisfied
AGTATACACAGACACACACACACATATATATATATA [CACACA_site8510] | Satisfied
AAAAAAAAAAAAAACACACACATACAGACAAAAATG [CACACA_site83] | Satisfied

Request: gcPBM binding intensity (ln) >= 10 for AGACAGCGCACAAACACACAAACACCCACCCACATA [CACACA_site451] ?
Response: Satisfied

###

Tested on: PfAP2-HC AP2 domain (GST-tagged)
protocolText: gcPBM binding intensity (ln(normalized median fluorescence intensity)); higher = stronger DNA binding
In all, about 25,000 sequences were measured (“ln(normalized median fluorescence intensity)”: median about 9.7, highest 2% from about 11 on). The full list was thinned out, with the highest values kept by preference.
assayMetric: gcPBM binding intensity (ln)
Answers are plain numbers.

sequence | gcPBM binding intensity (ln)
TATGTGTATTTATTTGCATGTTGGTTGTATTTTTTC [TGCATGCA_site479] | 10.4

Lab note: each sequence below needs its gcPBM binding intensity (ln) filled in.
1. ATATATGGGTAGTATACACACTGTATATTTAGGAAT [CACACA_site7357]
2. TATGTGTTCAGTATTGCACACACACTCCAAAATAAA [CACACA_site8018]
3. AAATATTTATACCACACACACATACCTCTATTTGTA [CACACA_site6957]

Response:
[9.91, 10, 10.7]

Measured gcPBM binding intensity (ln) of AAATATATATACCACACACACATACCTCTATTTGTA [CACACA_site1854] : 11.1
